tested on: NCI-H1299; experiment: relative viability (nuclei count vs DMSO), 5 days (fraction); higher = more cells survive; conditions: first compound 0.2 µM
Would you mind telling me the reported relative viability of each entry?
Please reply with the number alone, leaving off any unit.

Task item: Please give the measured relative viability for this compound: COCC1(CO)C(=O)C2CCN1CC2 (stereo not drawn) [PRIMA-1MET] + CS(=O)(=O)CCNCc1ccc(-c2ccc3ncnc(Nc4ccc(OCc5cccc(F)c5)c(Cl)c4)c3c2)o1 [Lapatinib] (partner 2 µM)
Reply: 0.977

Task item: Try the compound COCC1(CO)C(=O)C2CCN1CC2 (stereo not drawn) [PRIMA-1MET] + Cc1nc(NC(=O)N2CCC[C@H]2C(N)=O)sc1-c1ccnc(C(C)(C)C(F)(F)F)c1 [Alpelisib] (partner 2 µM)
Reply: 1.07

Task item: Can you handle COCC1(CO)C(=O)C2CCN1CC2 (stereo not drawn) [PRIMA-1MET] + CS(=O)(=O)N1CCN(Cc2cc3nc(-c4cccc5[nH]ncc45)nc(N4CCOCC4)c3s2)CC1 [Pictilisib] (partner 1 µM) next?
Reply: 0.956
